Recorded measurements of yeast surface expression, one per entry
B1: scFv; the commonest letter at each place (parent)
chain 1: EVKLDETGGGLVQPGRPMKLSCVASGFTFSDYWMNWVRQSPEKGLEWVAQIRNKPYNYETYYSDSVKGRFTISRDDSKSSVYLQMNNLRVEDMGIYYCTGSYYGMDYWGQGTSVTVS
chain 2: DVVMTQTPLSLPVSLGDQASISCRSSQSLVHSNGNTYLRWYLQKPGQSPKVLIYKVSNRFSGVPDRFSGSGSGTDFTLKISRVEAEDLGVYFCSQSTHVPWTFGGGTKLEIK

# Variants of: B1
# MEASUREMENT_PROTOCOL: yeast surface expression (ratio to wild type); higher = more expressed
# CONDITION_DETAILS: format: scFv 4-4-20, heavy + light
REPORTED_PROPERTY: yeast surface expression

[
  {
    "MUTATION_KEY": "chain 1 M105T Y107C",
    "REPORTED_PROPERTY": "yeast surface expression",
    "NUMERIC_READOUT": 0.675
  },
  {
    "MUTATION_KEY": "chain 1 T28F D31A",
    "REPORTED_PROPERTY": "yeast surface expression",
    "NUMERIC_READOUT": 0.637
  },
  {
    "MUTATION_KEY": "chain 1 F29G S30T N35R",
    "REPORTED_PROPERTY": "yeast surface expression",
    "NUMERIC_READOUT": 0.82
  },
  {
    "MUTATION_KEY": "chain 1 T28C D31Q",
    "REPORTED_PROPERTY": "yeast surface expression",
    "NUMERIC_READOUT": 0.575
  },
  {
    "MUTATION_KEY": "chain 1 F29Q",
    "REPORTED_PROPERTY": "yeast surface expression",
    "NUMERIC_READOUT": 0.989
  },
  {
    "MUTATION_KEY": "chain 1 F29S W33C",
    "REPORTED_PROPERTY": "yeast surface expression",
    "NUMERIC_READOUT": 0.865
  },
  {
    "MUTATION_KEY": "chain 1 G104A M105T",
    "REPORTED_PROPERTY": "yeast surface expression",
    "NUMERIC_READOUT": 0.685
  },
  {
    "MUTATION_KEY": "chain 1 Y103I D106A",
    "REPORTED_PROPERTY": "yeast surface expression",
    "NUMERIC_READOUT": 0.489
  },
  {
    "MUTATION_KEY": "chain 1 N35Q",
    "REPORTED_PROPERTY": "yeast surface expression",
    "NUMERIC_READOUT": 0.814
  },
  {
    "MUTATION_KEY": "chain 1 D106R",
    "REPORTED_PROPERTY": "yeast surface expression",
    "NUMERIC_READOUT": 0.451
  },
  {
    "MUTATION_KEY": "chain 1 S101F Y102A",
    "REPORTED_PROPERTY": "yeast surface expression",
    "NUMERIC_READOUT": 0.623
  },
  {
    "MUTATION_KEY": "chain 1 D31G W33P",
    "REPORTED_PROPERTY": "yeast surface expression",
    "NUMERIC_READOUT": 0.569
  },
  {
    "MUTATION_KEY": "chain 1 G104W G109E",
    "REPORTED_PROPERTY": "yeast surface expression",
    "NUMERIC_READOUT": 0.167
  },
  {
    "MUTATION_KEY": "chain 1 T28W D31R",
    "REPORTED_PROPERTY": "yeast surface expression",
    "NUMERIC_READOUT": 0.51
  }
]
